- Method Description: yeast display, Sf9 membrane polyspecificity reagent, FACS + sequencing; frameworks hold sequencing errors

{"columns": ["Input Sequence", "polyreactivity (PSR sort gate)"],
 "data": [
  ["QVQLVESGGGLVQEGGSLRLSCAASGSILIVYAMGWYRQATGKERELVAAITRGGRTNYADSVKGRFTISRDNAKNTVYLQMNSLKPEDTAVYYCAARVLPANVKPYNYWGQGTQVTVSS", "high polyreactivity"],
  ["QVQLVESGGGLVQAGGSLRLSCAASGSSFRRYAMGWYRQAPGKERELVATIRSGGSTTYADSVKGRFTISRDNAKNTVYLQMNSLKPEDTAVYFFAAGTKPSYYYWGQGTQVTVSS", "low polyreactivity"],
  ["QVQLVESGGGLVQAGGSLRLSCAASGITFLPYTMGWYRQAPGKERELVATISWNGGSTYYADSVKGRFTISRDNAKNTVYLQMNSLKPEDTAVYYCATGKWGYFRYNYWGQGTQVTVSS", "high polyreactivity"],
  ["QVQLEESGGGLVQAGGSLRLSCAASGRIFSDYAKGGYRQAPGKERELVATITSGDSTNYADSVKGRFTISRDNAKNTVYLQMNRLKPEDTAVYYCNADRFADYDYWGQGTQVTVSS", "low polyreactivity"]
]}
